Assay: Human HepG2 cell viability assay in 384 well format
Assay type: toxicity, cell-based
Design: dose 125 nL, time 70.5 hour; concentration not given beside the values
Details: HepG2 cells, read-out: Inhibition
Below, each of the molecules is paired with its reported cytotoxicity at 70.5 h value.
Write the answer as a number in %, unit excluded.

See these solved cases before continuing.
                                   molecule         reported_metric  units_text  reading
0       CN1CCN(CCCN(C)S(=O)(=O)C2CCCCC2)CC1  cytotoxicity at 70.5 h           %    -1.58
1  Cc1cc(C(=O)NCC(c2ccccc2Cl)N2CCOCC2)on1 (stereo unspecified)  cytotoxicity at 70.5 h           %    -1.66
2  Cc1ccc2c(n1)N(Cc1cccnc1)CCN(Cc1cnn(C)c1)C2  cytotoxicity at 70.5 h           %    -2.59
3     N#Cc1ccc(CN2CCC(CCc3ccc(O)cc3)CC2)cc1  cytotoxicity at 70.5 h           %       11
4  Cn1cc(C(=O)NC[C@@H]2OC[C@H]3CN(S(C)(=O)=O)CC[C@H]32)cn1  cytotoxicity at 70.5 h           %    -3.04
5    Cc1ncc2c(n1)C1(CCN(C(=O)C(C)C)CC1)OCC2  cytotoxicity at 70.5 h           %    -6.13
6  CN(C)Cc1nc(-n2cnc(C(=O)NC3CCCC3)c2)n2ccccc12  cytotoxicity at 70.5 h           %    -3.17
7  CC(C)c1noc(CS(=O)(=O)CC(=O)NCc2ccccc2)n1  cytotoxicity at 70.5 h           %    -9.16
8     CN(Cc1cnn(C)c1)C(=O)Cc1ccc2c(c1)OCCO2  cytotoxicity at 70.5 h           %    -62.7
9  O=C1CC2(CCN(Cc3ncc[nH]3)CC2)CN1Cc1ccc(Cl)cc1  cytotoxicity at 70.5 h           %    -2.21

Exercise: # cytotoxicity at 70.5 h lookup, item "CCn1cc(CN2CCCN(C(=O)CCn3cc(C)cn3)CC2)cn1"
Key: -12.3

###

Test: Human HepG2 cell viability assay in 384 well format
Assay type: toxicity, cell-based
Parameters: dose 125 nL, time 70.5 hour; concentration not given beside the values
Details: HepG2 cells, read-out: Inhibition
Below, each of the molecules is paired with its reported cytotoxicity at 70.5 h value.

See these solved cases before continuing.
                                   molecule  reading
0  CN(CCC#N)C(=O)CN(C1CC1)C1CCc2ccccc21 (stereo unspecified)   0.586%
1  Cc1ccc(CN2CC[C@@H](N3CCOCC3)[C@@H]2Cc2cccnc2)o1   -6.64%
2  CN(C)C(=O)CCC1CCCN(Cc2cccc(-c3ccccn3)c2)C1 (stereo unspecified)    12.2%
3         O=C(CN1CCSC2(CCCCC2)C1)NCC(F)(F)F   -10.8%
4  CC(Oc1ccccc1C(F)(F)F)C(=O)NCCNC(=O)C1CC1 (stereo unspecified)   -6.09%

Exercise: # cytotoxicity at 70.5 h lookup, item "O=C(c1ccnnc1)N1CCc2onc(Cn3cccn3)c2C1"
Key: -3.08%

Exercise: # cytotoxicity at 70.5 h lookup, item "Cc1ncccc1Oc1nccnc1C1CCN(S(C)(=O)=O)CC1"
Key: -5.66%

Exercise: # cytotoxicity at 70.5 h lookup, item "CN(CCCc1cc(-c2ccc(F)cc2)n(C)n1)CC(=O)NC(N)=O"
Key: -8.03%

Exercise: # cytotoxicity at 70.5 h lookup, item "Cc1n[nH]c(SCCNC2CCN(c3nc4ccccc4s3)CC2)n1"
Key: 2%

Exercise: # cytotoxicity at 70.5 h lookup, item "NC(=O)CN1CCCN(C(=O)Cc2ccc3ccccc3c2)CC1"
Key: 33.3%

Exercise: # cytotoxicity at 70.5 h lookup, item "CC(C)N1CCC(c2cnc(-c3cn[nH]c3)cn2)CC1"
Key: 2.32%
